- MEASUREMENT_NOTES: BSK_LPS_SRB: Viability Assessment in the BioMAP Diversity Plus: LPS Assay (AID 2283079);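 further: total protein by sulforhodamine B absorbance as a cytotoxicity measure; measured one day after compound addition; fitted in both directions against DMSO so loss or gain of signal counts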
- SETTINGS: primary human HUVEC with PBMC
Active and inactive are the calls of the source. How the source made its calls: active means hit-call score of the fitted dose curve at least 0.9, where 1 is the maximum; inactive means score below 0.9.
Assign a class; possible classes are active, inactive

Reference set, count: 4
> print(dat)
                                   molecule  classification
1  CCCCOC(=O)[C@@H](C)Oc1ccc(Oc2ccc(C#N)cc2F)cc1        inactive
2  CC(C)[C@H](C(=O)O[C@H](C#N)c1cccc(Oc2ccccc2)c1)c1ccc(Cl)cc1        inactive
3  C#CCC1=C(C)C(OC(=O)C2C(C=C(C)C)C2(C)C)CC1=O (stereo not given)          active
4  CCOC(=O)COc1cc(-c2nn(C)c(OC(F)F)c2Cl)c(F)cc1Cl        inactive

For CCOP(=S)(OCC)Oc1ccc2c(C)c(Cl)c(=O)oc2c1 , which call appears in the assay record? inactive
